Where these numbers come from: patent US8754242B2

Test system: Avena fatua (AVEFA)
Test: Test Example 1 post-emergence herbicidal activity
Type: in vivo
Conditions: 360 h, rate 125 g/ha, evaluated 15 days later, read-out: Post-emergence activity AVEFA (100=total damage to plant; 0=no damage to plant)
Parameter: pest or weed control at 125 g/ha. Scope: all listed entries.
property: pest or weed control at 125 g/ha (%)

- compound: "Cc1cc(C)c(C2=C(O)[C@@H]3[C@@H]4O[C@@H](C[C@H]4c4ccc(C#N)cc4)[C@@H]3C2=O)c(C)c1 [Example T93]"
  tested-system: "Avena fatua (AVEFA)"
  unit-of-measure: "%"
  value-reported: 80
- compound: "CCc1cc(C)cc(CC)c1C1=C(OC(=O)CC(C)C)[C@H]2[C@@H](C1=O)[C@@H]1CC[C@H]2O1 [Example P19]"
  tested-system: "Avena fatua (AVEFA)"
  unit-of-measure: "%"
  value-reported: 100
- compound: "Cc1ccc([C@@H]2C[C@@H]3O[C@H]2[C@H]2C(O)=C(c4c(C)cc(C)cc4C)C(=O)[C@H]23)cc1 (racemic) [Example T71]"
  tested-system: "Avena fatua (AVEFA)"
  unit-of-measure: "%"
  value-reported: 10
